molecular target: T1, human GARP-TGF-β1 complex (recombinant complex of human GARP and latent human TGF-β1) (human, UniProt Q14392 20-627; P01137 30-278; P01137 279-390); assay: SPR, IgG1 on human GARP-TGF-β1 complex
T1 construct: also called huGARP-TGF-β1; hGARP-TGF-β1
T1 sequence (Q14392 20-627 limits assumed, chain 1 of 3): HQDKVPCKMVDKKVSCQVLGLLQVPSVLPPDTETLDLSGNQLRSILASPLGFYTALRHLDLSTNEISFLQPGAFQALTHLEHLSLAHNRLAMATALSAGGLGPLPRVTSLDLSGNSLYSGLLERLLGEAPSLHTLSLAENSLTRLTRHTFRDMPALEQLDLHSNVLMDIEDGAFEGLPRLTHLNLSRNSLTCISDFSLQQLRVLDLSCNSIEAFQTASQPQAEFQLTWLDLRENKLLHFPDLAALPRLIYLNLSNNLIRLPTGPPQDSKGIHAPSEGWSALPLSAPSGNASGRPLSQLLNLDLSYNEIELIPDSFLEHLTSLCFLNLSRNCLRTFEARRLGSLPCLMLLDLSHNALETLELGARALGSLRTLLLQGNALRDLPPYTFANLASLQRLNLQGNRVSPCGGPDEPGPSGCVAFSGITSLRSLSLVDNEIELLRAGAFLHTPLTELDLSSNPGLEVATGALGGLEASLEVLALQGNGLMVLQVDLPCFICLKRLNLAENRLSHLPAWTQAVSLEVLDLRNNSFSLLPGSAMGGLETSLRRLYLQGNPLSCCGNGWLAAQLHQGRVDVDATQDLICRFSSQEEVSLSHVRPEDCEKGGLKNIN
T1 sequence (P01137 30-278 limits assumed, chain 2 of 3): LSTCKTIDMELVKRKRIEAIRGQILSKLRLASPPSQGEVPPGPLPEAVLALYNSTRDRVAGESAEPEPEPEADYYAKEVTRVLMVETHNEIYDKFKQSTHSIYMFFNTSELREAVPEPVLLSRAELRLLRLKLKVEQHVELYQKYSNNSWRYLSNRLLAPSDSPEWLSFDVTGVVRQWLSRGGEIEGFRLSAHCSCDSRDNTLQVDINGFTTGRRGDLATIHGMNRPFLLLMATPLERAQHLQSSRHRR
T1 sequence (P01137 279-390 limits assumed, chain 3 of 3): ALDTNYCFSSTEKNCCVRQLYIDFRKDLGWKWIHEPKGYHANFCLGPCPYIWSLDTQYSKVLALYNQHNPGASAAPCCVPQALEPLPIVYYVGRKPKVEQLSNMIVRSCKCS
endpoint: pKd
Scale: negative log10 of molar concentration, which is what pKd denotes.

Record 39B10 human IgG1 (antibody, V domains shown, Full human IgG1, made in HEK 293E cells) VH: EVQLVQSGAELKKPGASVKVSCKASGYRFTSYYIDWVRQAPGQGLEWMGRIDPEEGGTKYAQKFQGRVTMTADTSTSTAYMELSSLRSEDTAVYYCARNEWETVVVGDLMYEYEYWGQGTLVTVSS VL: DIQMTQSPSSLSASLGDRVTITCQASQSISSYLAWYQQKPGQAPNILIYGASRLKTGVPSRFSGSGSGTDFTLTISGLEAEDFATYYCQQYASVPVTFGQGTKVEIK . Reported pKd: 9.58

The value of pKd measured for the binder 39B6 human IgG1 (antibody, V domains shown, Full human IgG1, made in HEK 293E cells) VH: QVQLVQPGAEVRKPGASVKVSCKASGYRFTSYYIDWVRQAPGQGLEWMGRIDPEDGGTKYAQKFQGRVTMTADTSTSTVYVELSSLRSEDTAVYYCARNEWETVVVGDLMYEYEYWGQGTLVTVSS VL: DIQMTQSPSSLSASVGDRVTITCQASQSISSYLAWYQQKPGQAPKILIYGASRLKTGVPSRFSGSGSGTSFTLTISSLEPEDAATYYCQQYASVPVTFGQGTKVEIK turned out to be 9.78

# binder 39A12 human IgG1 (antibody, V domains shown, Full human IgG1, made in HEK 293E cells; also called 39A12_T) VH: EVQLVQPGAEVKKPGASVKVSCKASGYRFTSYYIDWVRQAPGQGLEWMGRIDPEEGGTKYAQKFQGRVTFTADTSTSTVYVELSSLRSEDTAVYYCARNEWETVVVGDLTYEYEYWGQGTLVTVSS VL: DIQMTQSPSSLSASVGDRVTITCQASQSISSYLAWYQQKPGQAPKILIYGASRLKTGVPSRFSGSGSGTDFTLTISSLQAEDFATYYCQQYASVPVTFGQGTKVEIK ; its pKd = 9.30

The reported numbers originate from patent US20210324061A1.
